For each entry below, report its IC50 value.
Biological target: Tdp1 (Homo sapiens)
Construct: made in house; host or cells: Escherichia coli
Sequence (Q9NUW8 whole entry): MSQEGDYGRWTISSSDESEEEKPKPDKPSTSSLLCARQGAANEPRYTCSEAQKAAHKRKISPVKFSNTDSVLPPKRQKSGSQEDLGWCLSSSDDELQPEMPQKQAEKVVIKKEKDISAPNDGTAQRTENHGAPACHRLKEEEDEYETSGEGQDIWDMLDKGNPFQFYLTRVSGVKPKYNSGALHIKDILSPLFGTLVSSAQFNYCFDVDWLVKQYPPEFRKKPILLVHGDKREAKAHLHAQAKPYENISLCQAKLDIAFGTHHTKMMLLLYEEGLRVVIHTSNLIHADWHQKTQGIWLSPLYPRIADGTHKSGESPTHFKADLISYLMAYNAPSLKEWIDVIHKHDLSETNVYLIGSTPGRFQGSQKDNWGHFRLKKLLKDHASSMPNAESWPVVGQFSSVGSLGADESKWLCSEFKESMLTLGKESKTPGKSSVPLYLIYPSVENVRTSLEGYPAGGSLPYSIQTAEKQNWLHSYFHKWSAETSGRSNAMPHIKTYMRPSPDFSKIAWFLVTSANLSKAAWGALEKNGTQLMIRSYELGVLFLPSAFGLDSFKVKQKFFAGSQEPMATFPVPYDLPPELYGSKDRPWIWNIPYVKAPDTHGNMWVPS
Experiment: Real-time detection of Tdp1 activity (5'-FAM/3'-BHQ1 oligonucleotide biosensor)
Assay type: biochemical
Settings: 1.5 nM Tdp1, 50 nM oligonucleotide substrate, 26 °C
Numbers only, in nM.

Known results for compounds:
[
  {
    "compound": "COc1ccc(/C=N/Nc2nc(-c3c(O)c(C)c(O)c4c3OC3=CC(O)=C(C(C)=O)C(=O)[C@@]34C)cs2)cc1COc1ccc(F)cc1 [(+)-17a]",
    "study.system": "Tdp1 (Homo sapiens)",
    "quantity": "IC50",
    "measurement.units": "nM",
    "result.number": 26
  },
  {
    "compound": "CC(=O)C1=C(O)C=C2Oc3c(-c4csc(N/N=C/c5cccs5)n4)c(O)c(C)c(O)c3[C@]2(C)C1=O [(−)-16g]",
    "study.system": "Tdp1 (Homo sapiens)",
    "quantity": "IC50",
    "measurement.units": "nM",
    "result.number": 169
  },
  {
    "compound": "CC(=O)C1=C(O)C=C2Oc3c(-c4csc(N/N=C/c5c[nH]c6ccccc56)n4)c(O)c(C)c(O)c3[C@@]2(C)C1=O [(+)-16p]",
    "study.system": "Tdp1 (Homo sapiens)",
    "quantity": "IC50",
    "measurement.units": "nM",
    "result.number": 138
  },
  {
    "compound": "COc1ccc(/C=N/Nc2nc(-c3c(O)c(C)c(O)c4c3OC3=CC(O)=C(C(C)=O)C(=O)[C@@]34C)cs2)cc1COc1ccc(Cl)c(C)c1 [(+)-17h]",
    "study.system": "Tdp1 (Homo sapiens)",
    "quantity": "IC50",
    "measurement.units": "nM",
    "result.number": 74
  }
]

// moving on: another record for IC50
INPUT: Kindly state the measured IC50 obtained for COc1ccc(/C=N/Nc2nc(-c3c(O)c(C)c(O)c4c3OC3=CC(O)=C(C(C)=O)C(=O)[C@]34C)cs2)cc1CN1CCN(c2ccc(F)cc2)CC1 [(−)-17i] with Tdp1 (Homo sapiens).
OUTPUT: 59

###

Please provide measured IC50 for the entries that follow.
Target: Tdp1 (Homo sapiens)
Construct: made in house; host or cells: Escherichia coli
Assay: Real-time detection of Tdp1 activity (5'-FAM/3'-BHQ1 oligonucleotide biosensor)
Format: biochemical
Conditions: 1.5 nM Tdp1, 50 nM oligonucleotide substrate, 26 °C
Give bare numbers, in µM.

Use these answered entries as a reference point.
[
  {
    "compound": "CC(=O)C1=C(O)C=C2Oc3c(-c4csc(N/N=C/c5ccc(Br)s5)n4)c(O)c(C)c(O)c3[C@@]2(C)C1=O [(+)-16f]",
    "quantity": "IC50",
    "result.number": 0.088
  },
  {
    "compound": "COc1ccc(/C=N/Nc2nc(-c3c(O)c(C)c(O)c4c3OC3=CC(O)=C(C(C)=O)C(=O)[C@@]34C)cs2)cc1COc1cccc(F)c1 [(+)-17b]",
    "quantity": "IC50",
    "result.number": 0.026
  },
  {
    "compound": "CC(=O)C1=C(O)C=C2Oc3c(-c4csc(N/N=C/c5ccncc5)n4)c(O)c(C)c(O)c3[C@@]2(C)C1=O [(+)-16a]",
    "quantity": "IC50",
    "result.number": 0.16
  }
]

INPUT: API: value(readout=IC50, system=Tdp1 (Homo sapiens)) for record CC(=O)C1=C(O)C=C2Oc3c(-c4csc(N/N=C/c5ccc(Br)s5)n4)c(O)c(C)c(O)c3[C@]2(C)C1=O [(−)-16f]
OUTPUT: 0.043

###

Target: Tdp1 (Homo sapiens)
Construct: made in house; host or cells: Escherichia coli
Assay: Real-time detection of Tdp1 activity (5'-FAM/3'-BHQ1 oligonucleotide biosensor)
Type: biochemical
Settings: 1.5 nM Tdp1, 50 nM oligonucleotide substrate, 26 °C
quantity: pIC50
Give bare numbers, as −log10 of the molar value.

Worked examples follow.
[
  {
    "compound": "CC(=O)C1=C(O)C=C2Oc3c(-c4csc(N/N=C/c5cccn5C)n4)c(O)c(C)c(O)c3[C@]2(C)C1=O [(−)-16n]",
    "pIC50": 7.54
  },
  {
    "compound": "COc1ccc(/C=N/Nc2nc(-c3c(O)c(C)c(O)c4c3OC3=CC(O)=C(C(C)=O)C(=O)[C@]34C)cs2)cc1Cn1nc(C)c([N+](=O)[O-])c1C [(−)-17k]",
    "pIC50": 7.34
  },
  {
    "compound": "CC(=O)C1=C(O)C=C2Oc3c(-c4csc(N/N=C/c5cc(Br)cs5)n4)c(O)c(C)c(O)c3[C@@]2(C)C1=O [(+)-16h]",
    "pIC50": 7.15
  }
]

// for each compound in input: emit pIC50
1. COc1ccc(/C=N/Nc2nc(-c3c(O)c(C)c(O)c4c3OC3=CC(O)=C(C(C)=O)C(=O)[C@@]34C)cs2)cc1CSc1cc(C)ccc1C(C)(C)C [(+)-17g]
2. CC(=O)C1=C(O)C=C2Oc3c(-c4csc(N/N=C/c5ccoc5)n4)c(O)c(C)c(O)c3[C@@]2(C)C1=O [(+)-16l]
3. COc1ccc(/C=N/Nc2nc(-c3c(O)c(C)c(O)c4c3OC3=CC(O)=C(C(C)=O)C(=O)[C@]34C)cs2)cc1COc1ccc(F)c(Cl)c1 [(−)-17d]
4. CC(=O)C1=C(O)C=C2Oc3c(-c4csc(N/N=C/c5ccoc5)n4)c(O)c(C)c(O)c3[C@]2(C)C1=O [(−)-16l]
5. CC(=O)C1=C(O)C=C2Oc3c(-c4csc(N/N=C/c5ccc(C)s5)n4)c(O)c(C)c(O)c3[C@]2(C)C1=O [(−)-16e]

OUTPUT:
1: 6.91; 2: 7.11; 3: 7.74; 4: 6.75; 5: 7.27

For the 4 compounds below, give their pIC50 values.
1. CC(=O)C1=C(O)C=C2Oc3c(-c4csc(N/N=C/c5ccco5)n4)c(O)c(C)c(O)c3[C@]2(C)C1=O [(−)-16k]
2. COc1ccc(/C=N/Nc2nc(-c3c(O)c(C)c(O)c4c3OC3=CC(O)=C(C(C)=O)C(=O)[C@]34C)cs2)cc1COc1ccccc1F [(−)-17c]
3. CC(=O)C1=C(O)C=C2Oc3c(-c4csc(N/N=C/c5ccco5)n4)c(O)c(C)c(O)c3[C@@]2(C)C1=O [(+)-16k]
4. CC(=O)C1=C(O)C=C2Oc3c(-c4csc(N/N=C/c5ccc(C)s5)n4)c(O)c(C)c(O)c3[C@@]2(C)C1=O [(+)-16e]

OUTPUT:
1: 7.34; 2: 7.43; 3: 6.92; 4: 7.04

INPUT: What does the record list as pIC50 for CC(=O)C1=C(O)C=C2Oc3c(-c4csc(N/N=C/c5ccc(-c6cccc(Cl)c6)o5)n4)c(O)c(C)c(O)c3[C@@]2(C)C1=O [(+)-16r] ?
OUTPUT: 7.26
